System: SK-MEL-28 melanoma
assayName: NCI tumour cell line growth inhibition, 48 h
What TGI was measured for each of the following?

1. Cc1cc2c(C(N)=O)cccc2n1-c1nc2c(c(NCc3ccccc3)n1)CCCN2; 0.593 µM
2. FC(F)(F)C1(C(F)(F)F)OC(Cl)(Cl)C(Cl)(Cl)O1; > 10 µM
3. O[C@]12CCCC[C@H]1CCC2; > 100 µM
4. COc1ccc(/C=C(\C#N)c2cc(OC)c3c(c2)OCO3)cc1; 44.8 µM
5. C=CCC1(O)c2cccc(O)c2C(=O)c2cccc(O)c21 (stereo unspecified); 84.7 µM

Take each entry in turn and give its TGI.
1. O=C(O)c1cc2c(cc1S(=O)(=O)O)C1C(C3C2C2(Cl)C(Cl)=C(Cl)C3(Cl)C2(Cl)Cl)C2(Cl)C(Cl)=C(Cl)C1(Cl)C2(Cl)Cl (stereo unspecified)
2. Cn1c(=O)c2[nH]c(COCc3nc4c([nH]3)c(=O)n(C)c(=O)n4C)nc2n(C)c1=O
3. Cc1ccc(C(=O)N/N=C/c2cccc(Oc3ccccc3)c2)cn1
4. C=C1C(C[C@@H]2O[C@H]3C[C@H]4O[C@@]5(C[C@@H]6O[C@]7(C[C@H](C)[C@@H]8O[C@@H]9CC(C(O)CO)O[C@@H]9C[C@@H]8O7)C[C@H](C)[C@@H]6O5)C[C@H]4O[C@H]3[C@H](C)[C@H]2O)O[C@@H](CC[C@@H]2O[C@@H](CC[C@@]34CC5O[C@H]6C(O[C@H]7CC[C@H](CC(=O)OC)O[C@@H]7[C@@H]6O3)[C@H]5O4)CC2=C)C[C@H]1C (stereo partly specified)
5. COc1ccc(/C=N/n2c(C)n[nH]c2=O)cc1
6. NC1CCC[C@@H](O)[C@H]1O (stereo partly specified)
7. O=C(COC(=O)c1ccccc1)c1ccc(Br)cc1

["> 100 µM", "> 100 µM", "> 100 µM", "> 1 µM", "> 100 µM", "> 100 µM", "32.1 µM"]

Dear colleague, could you please provide TGI for the molecules listed below?
1. Cn1c2ccccc2n2c3ccccc3c(=S)c(C#N)c12
2. Cc1[nH]n(-c2nc(O)c(C)c(=O)[nH]2)c(=O)c1CCO
3. CC(=O)NC1CCC(NC(=O)OC(C)(C)C)C(NC(=O)OC(C)(C)C)C1 (stereo unspecified)
4. Cc1nc(NC(=S)Nc2ccc(F)cc2)sc1C(=O)NNC(=S)Nc1ccc(F)cc1

> 100 µM
> 100 µM
> 100 µM
28.3 µM

Return reported TGI values for all items listed beneath this line.
1. N#Cc1nc(Cc2ccccc2)oc1N
2. COc1ccc(S(=O)Cc2cc(OC)ccc2OC)cc1 (stereo unspecified)
3. COC1CC(OS(=O)(=O)c2ccc(C)cc2)C(OS(=O)(=O)c2ccc(C)cc2)C(COS(=O)(=O)c2ccc(C)cc2)O1 (stereo unspecified)
4. CC1(C)N=C(N)N=C(N)N1c1ccc(CCCCc2ccc(Cl)cc2Cl)cc1
5. Cc1cc2c(cc1Cl)Sc1nnc(C)n1S2(=O)=O

1. > 100 µM
2. > 100 µM
3. 13.4 µM
4. 19.2 µM
5. 31.5 µM

Report TGI for each item below.
1. Cc1cc(N/N=C/c2nc(-c3ccccc3)oc2C)c2cc(Cl)ccc2n1
2. C=C(Br)C(Cl)(CBr)CCC(Br)C(C)(C)Cl (stereo unspecified)
3. CN(C)CC#Cc1cccc(C(=O)c2cnn(-c3ccc(F)cc3)c2N)c1
4. CCOC(=O)C#Cc1ccc(C#CC(=O)OCC)cc1

3.16 µM
> 10 µM
> 25 µM
> 20.9 µM

Would you mind giving TGI for every molecule in the list below?
1. Cc1ccc(-c2c(C#N)c(S)n(NS(=O)(=O)c3ccccc3)c(=O)c2C#N)cc1
2. O=[N+]([O-])c1cc(Br)cc2c1[nH]c1ccc(Br)cc12
3. Cc1cc2nc3c(C(O)CO)nn(-c4ccccc4)c3nc2cc1C (stereo unspecified)

> 100 µM
> 100 µM
42 µM

For every record below, what is its TGI?
1. N#CC(C#N)=CN1CCN(C(=O)c2ccccc2)C1=S
2. O=[N+]([O-])C(=C/C1CCCCC1)/C(=C\C1CCCCC1)[N+](=O)[O-]

1: > 100 µM; 2: 24.7 µM

Which value of TGI has been reported for C=CCOc1ccc(C2c3c([nH][nH]c3=O)CC(C)(O)C2C(=O)OC)cc1OC (stereo unspecified) in the records?
> 100 µM
